Assay Explanation: clinical
Assay Setup: human, in vivo

Molecule	Units Text	half-life
COc1ccc(-c2ccc3ncc4c(c3c2)n(-c2ccc(N3CCNCC3)c(C(F)(F)F)c2)c(=O)n4C)cn1 [BGT-226 FREE BASE]	h	6

---

Target System: UniProt P42345

Smiles Notation	Target System	IC50
COc1cc(Nc2nc3ccccc3nc2NS(=O)(=O)c2ccc(NC(=O)c3ccc(C)c(OC)c3)cc2)cc(OC)c1	UniProt P42345	190 nM

---

The following compounds each carry a recorded IC50 for DNA-dependent protein kinase catalytic subunit (Homo sapiens, UniProt P78527).
Assay Endpoint: IC50 (nM)

Compound	Endpoint Value
N=C(N)NCCCC(NC(=O)CCC(=O)OC[N+]1(c2cc(=O)c3cccc(-c4ccccc4)c3o2)CCOCC1)C(=O)NCC(=O)NC(CC(=O)O)C(=O)NC(CO)C(=O)[O-] (configuration not stated)	357
COc1cc(Nc2nc3ccccc3nc2NS(=O)(=O)c2ccc(NC(=O)c3ccc(C)c(OC)c3)cc2)cc(OC)c1	150
